study.system: Human TRPML3 (Homo sapiens, UniProt Q8TDD5)
Sequence (Q8TDD5 whole entry): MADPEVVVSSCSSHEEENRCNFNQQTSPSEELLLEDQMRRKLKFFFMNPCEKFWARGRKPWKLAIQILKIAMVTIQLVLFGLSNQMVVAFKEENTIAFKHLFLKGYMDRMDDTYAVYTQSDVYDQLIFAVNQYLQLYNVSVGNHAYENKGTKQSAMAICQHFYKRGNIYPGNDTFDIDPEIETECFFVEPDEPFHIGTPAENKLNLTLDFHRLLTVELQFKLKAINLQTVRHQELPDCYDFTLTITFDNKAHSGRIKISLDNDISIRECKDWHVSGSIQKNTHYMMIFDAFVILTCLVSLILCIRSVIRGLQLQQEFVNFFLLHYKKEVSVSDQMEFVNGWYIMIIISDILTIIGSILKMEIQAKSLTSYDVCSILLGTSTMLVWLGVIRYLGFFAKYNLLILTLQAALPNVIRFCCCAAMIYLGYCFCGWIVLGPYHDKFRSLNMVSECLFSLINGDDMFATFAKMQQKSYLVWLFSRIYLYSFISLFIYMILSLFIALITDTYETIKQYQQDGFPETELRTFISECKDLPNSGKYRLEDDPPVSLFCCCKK
assay.protocol: Fluorescent TRPML3 assay (as for TRPML1)
study.conditions: fluorescent calcium assay as for TRPML1, TRPML3 subtype
property.measured: EC50

Past entries and their recorded results:
C[C@@H]1CN(c2ncnc3c2c(-c2ccccc2F)cn3-c2cc(C#N)ccn2)[C@@H](C)CN1C(=O)C1(O)CCN(C)CC1 > 2000 nM
C[C@@H]1CN(c2ncnc3c2c(-c2ccns2)cn3-c2cc(C#N)ccn2)[C@@H](C)CN1C(=O)C(C)(C)O 500 to 2000 nM
C[C@@H]1CN(c2ncnc3c2c(-c2ccncc2)cn3-c2cccc(Cl)c2)[C@@H](C)CN1C(=O)C(C)(C)O > 2000 nM
C[C@H]1CN(C(=O)C2(O)CCC2)CCN1c1ncnc2c1c(-c1ccccc1)cn2-c1cc(C#N)ccn1 100 to 500 nM
C[C@@H]1CN(c2ncnc3c2c(-c2ccccc2F)cn3-c2cc(C#N)ccn2)[C@@H](C)CN1C(=O)C(C)(C)OCC(F)(F)F < 100 nM

*Q* Item CCC(O)(CC)C(=O)N1C[C@H](C)N(c2ncnc3c2c(-c2ccccc2)cn3-c2cc(C#N)ccn2)C[C@H]1C has what recorded EC50?
*A* 100 to 500 nM

*Q* Then C[C@@H]1CN(c2ncnc3c2c(-c2ccncc2)cn3-c2cc(C#N)ccn2)[C@@H](C)CN1C(=O)C(C)(C)O ?
*A* 500 to 2000 nM

*Q* Then CC[C@H]1CN(C(=O)C(C)(C)O)[C@H](C)CN1c1ncnc2c1c(-c1ccccc1)cn2-c1cc(C#N)ccn1 ?
*A* 100 to 500 nM

*Q* Then CCOC(C)(C)C(=O)N1C[C@H](C)N(c2ncnc3c2c(-c2ccncc2)cn3-c2cc(C#N)ccn2)C[C@H]1C ?
*A* 500 to 2000 nM

These measurements were taken from patent US20260285866A1.
